system: Mus musculus; assay: Synergic sedative effect was tested in mice using the Hole Board test at peroral dose of 10 mg/kg, value was expressed in plane; assay type: functional; details: route oral
Recorded measurements of No. of counts, one per entry
reported.endpoint: No. of counts

compound: Cc1ccc(-c2nc3ccc(C)cn3c2CC(=O)N(C)C)cc1 [ZOLPIDEM]
measurement: 54.4
//
compound: Oc1c(-c2ccsc2)cnc2c(-c3cccc(C(F)(F)F)c3)cnn12
measurement: 139.6
//
compound: Oc1c(-c2ccsc2)cnc2c(-c3ccccn3)cnn12
measurement: 96.6
//
compound: Oc1c(-c2ccsc2)cnc2c(-c3ccsc3)cnn12
measurement: 12.2
//
compound: CN1C(=O)CN=C(c2ccccc2)c2cc(Cl)ccc21.Oc1c(-c2ccsc2)cnc2c(-c3ccccn3)cnn12
measurement: 68

---

target: GABA A receptor alpha-5/beta-3/gamma-2 (Rattus norvegicus, UniProt P18508+P19969+P63079); assay: Binding affinity for recombinant rat GABA-A receptor alpha-5-beta-3-gamma-2 subunits expressed in HEK 293 cells
Sequence (P18508 whole entry): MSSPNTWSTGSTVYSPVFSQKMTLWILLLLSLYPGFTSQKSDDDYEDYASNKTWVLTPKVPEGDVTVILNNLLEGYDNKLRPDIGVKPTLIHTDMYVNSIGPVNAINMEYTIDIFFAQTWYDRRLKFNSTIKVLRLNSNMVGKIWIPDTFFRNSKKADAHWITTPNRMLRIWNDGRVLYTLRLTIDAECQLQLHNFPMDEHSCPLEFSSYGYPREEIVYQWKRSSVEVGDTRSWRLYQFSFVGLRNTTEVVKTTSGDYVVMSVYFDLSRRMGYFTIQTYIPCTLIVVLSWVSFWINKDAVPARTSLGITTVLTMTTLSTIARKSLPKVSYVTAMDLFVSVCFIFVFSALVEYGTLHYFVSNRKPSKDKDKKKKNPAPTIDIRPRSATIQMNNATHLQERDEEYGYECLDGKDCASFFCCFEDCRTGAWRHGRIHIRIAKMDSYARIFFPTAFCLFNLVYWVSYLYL
Sequence (P19969 whole entry): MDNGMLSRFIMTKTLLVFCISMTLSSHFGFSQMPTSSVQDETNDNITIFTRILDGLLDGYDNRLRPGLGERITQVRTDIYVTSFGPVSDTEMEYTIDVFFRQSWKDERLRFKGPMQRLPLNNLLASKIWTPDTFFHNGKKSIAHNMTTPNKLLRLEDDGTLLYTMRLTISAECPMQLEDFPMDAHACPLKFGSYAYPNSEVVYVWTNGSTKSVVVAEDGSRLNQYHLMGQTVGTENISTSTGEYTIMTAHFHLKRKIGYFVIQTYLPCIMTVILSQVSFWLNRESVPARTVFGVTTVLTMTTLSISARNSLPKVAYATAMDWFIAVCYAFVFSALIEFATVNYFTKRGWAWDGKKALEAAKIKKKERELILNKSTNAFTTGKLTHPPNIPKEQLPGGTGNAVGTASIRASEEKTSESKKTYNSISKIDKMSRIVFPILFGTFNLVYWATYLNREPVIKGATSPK
Sequence (P63079 whole entry): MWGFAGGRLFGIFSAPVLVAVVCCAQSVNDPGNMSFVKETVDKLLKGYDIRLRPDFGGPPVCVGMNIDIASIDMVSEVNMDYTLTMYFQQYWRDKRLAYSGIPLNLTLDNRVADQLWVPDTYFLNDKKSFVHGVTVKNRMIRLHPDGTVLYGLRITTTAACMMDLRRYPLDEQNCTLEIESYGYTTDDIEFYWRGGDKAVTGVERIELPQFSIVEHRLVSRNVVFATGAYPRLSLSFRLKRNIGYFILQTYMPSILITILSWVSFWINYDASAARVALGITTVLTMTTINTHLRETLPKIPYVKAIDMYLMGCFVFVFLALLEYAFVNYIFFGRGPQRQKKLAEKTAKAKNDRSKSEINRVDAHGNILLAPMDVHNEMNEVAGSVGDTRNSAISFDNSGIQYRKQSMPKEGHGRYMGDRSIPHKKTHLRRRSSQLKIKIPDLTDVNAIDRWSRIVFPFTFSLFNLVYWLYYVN
pKi: −log10 of the molar value.
Recorded measurements of pKi, one per entry

substance.smiles: Oc1c(-c2ccsc2)cnc2c(-c3cccc(C(F)(F)F)c3)cnn12
pKi: 6.68
--
substance.smiles: Oc1c(-c2ccsc2)cnc2c(-c3cccc4ccccc34)cnn12
pKi: 6.81
--
substance.smiles: COc1cccc(-c2cnn3c(O)c(-c4ccsc4)cnc23)c1
pKi: 6.13
